Cited source: patent US9260425B2

As a worked illustration, we turn to Ki data collected for Pim-1 (Homo sapiens (Human)).
readout.kind: Ki (nM)

Given `CCn1cc(-c2cc3c(-c4cccc(N5CCC[C@@H](N)CC5)n4)n[nH]c3cn2)cn1` , state its recorded Ki. 0.073

I. CCn1cc(-c2cc3c(-c4cccc(N5CCNCC5)n4)n[nH]c3cn2)cn1
II. N[C@H]1CCCCN(c2cccc(-c3n[nH]c4cnc(-c5cnn(CCF)c5)cc34)n2)C1
Pick one: I or II . Which has the bigger Ki number? Record your answer as the label of the chosen record. I

* * *

target: UniProtKB P11309
pKi: −log10 of the molar value.
readout.kind: pKi

Here's what some known entries look like.
# input compound: Cc1ccc(-c2n[nH]c3cnc(-c4cccnc4)cc23)nc1N1CCC[C@@H](O)C1 [Example 309] ; wanted: its pKi 9.95

Which pKi is listed for Cn1cc(-c2cc3c(-c4cnn(CC(C)(C)O)c4)n[nH]c3cn2)cn1 [Example 250] ? 9.41

I. CCn1cc(-c2cc3c(-c4cccc(N5CC[C@@H](F)[C@H](N)C5)n4)n[nH]c3cn2)cn1 (relative stereo) [Example 462]
II. Cn1cc(-c2cc3c(-c4ccc(C5CC5)c(N5CCC[C@H](N)C5)n4)n[nH]c3cn2)cn1 [Example 486]
Could you please tell me which of these two has the higher pKi: I or II ? Write down the label attached to your selection. II

1. Cn1cc(-c2cc3c(-c4cccc(-c5cnn(C)c5)n4)n[nH]c3cn2)cn1 [Example 184]
2. N[C@H]1CCCN(c2nc(-c3n[nH]c4cnc(-c5cccnc5)cc34)ccc2Br)CC1 [Example 312]
3. Cc1cncc(-c2cc3c(-c4cccc(N5CCNCC5)n4)n[nH]c3cn2)n1 [Example 505]
List items by pKi in falling order. Kindly provide the labels arranged according to the requested ordering. 3, 2, 1
(3: 11.00, 2: 10.54, 1: 9.30)

* * *

biological target: UniProt P11309
readout.kind: Ki (nM)

The examples below pair each entry with its known result.
For the compound shown here, `NC1CCN(c2cccc(-c3n[nH]c4cnc(-c5cccnc5)cc34)n2)CC1` , give the reported Ki. 0.0839

What value of Ki has been reported for the following compound? `CCn1cc(-c2cc3c(-c4cccc(N5CCNC[C@@H](O)C5)n4)n[nH]c3cn2)cn1` 0.014

Quick one: Ki for `Cn1cc(-c2cc3c(-c4ccc(Br)c(N5CCC[C@H](N)C5)n4)n[nH]c3cn2)cn1` ? 0.009

Return reported Ki; argument: `OCCN1CCCN(c2cccc(-c3n[nH]c4cnc(-c5cccnc5)cc34)n2)CC1` 0.26

P. CC(C)(CN)Cn1cc(-c2n[nH]c3cnc(-c4cccnc4)cc23)ccc1=O
Q. c1cncc(-c2cc3c(-c4ccn(C5CCNCC5)n4)n[nH]c3cn2)c1
# argmax over Ki for candidates P and Q Indicate your choice by writing its label. P

P. NC[C@@H]1CCCN(c2ccncc2-c2cc3c(-c4ccccc4F)n[nH]c3cn2)C1
Q. CN1CCN(c2cc3c(-c4cccc(N5CCNCC5)n4)n[nH]c3cn2)CC1=O
R. N[C@H]1CCCN(c2nc(-c3n[nH]c4cnc(-c5cccnc5)cc34)ccc2Cl)C1
Rank the 3 compounds: largest Ki first, smallest last. Answer format: list of labels, ordered as asked. P, Q, R
